Reported MRC5 IL-1α values follow for various binders
- target of assay: T1, human IL-1α (human, UniProt P01583 113-271)
- T1 sequence (looked up): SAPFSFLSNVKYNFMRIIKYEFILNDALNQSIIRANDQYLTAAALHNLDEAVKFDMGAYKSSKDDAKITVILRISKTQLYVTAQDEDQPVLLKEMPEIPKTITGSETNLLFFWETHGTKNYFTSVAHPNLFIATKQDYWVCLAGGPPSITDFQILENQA
- protocol details: cell-based or functional assay

- binder: "ABT2-108-538x/ABT1-122-511 hu IgG1/K wt (bispecific antibody, V domains shown) VH: EVQLLESGGGLVQPGGSLRLSCAASGFTFADEGMMWVRQAPGKGLEWVSRITYSGKNTYYADSVKGRFTISRDNSKNTLYLQMNSLRAEDTAVYYCAKYTGRILGHHLFDYWGQGTLVTVSS VL: DIQMTQSPSSLSASVGDRVTITCRASQPIWTELNWYQQKPGKAPKLLIYGSSSLQRGVPSRFSGSGSGTDFTLTISSLQPEDFATYYCKQFAYFPATFGQGTKVEIKR"
  MRC5 IL-1α [nM]: 259
- binder: "IgG pairing ABT1-122-750X with ABT2-65-17 (bispecific antibody, V domains shown) VH: EVQLLESGGGLVQPGGSLRLSCVASGFTFEDYQMGWVRQAPGKGLEWVSSISAMGNRTYYADSVKGRFTISRDDSKNTLYLQMNSLRAEDTAVYYCAQNLVRLGRSRWMFDYWGQGTLVTVSS VL: DIQMTQSPSSLSASVGDRVAITCSASQHIWTEISWYQQKPGKAPKLLIYGSASRQKGVPSRFSGSGSGTDFTLTISSLQPEDFATYYCKQFAYFPNTFGQGTKVEIKR"
  MRC5 IL-1α [nM]: 20
- binder: "IgG pairing ABT1-95-A2 with ABT2-65-166 (bispecific antibody, V domains shown, IgG; also called 1-95-A2 / 2-65-166) VH: EVQLLESGGGLVQPGGSLRLSCAASGFTFEDYQMGWVRQAPGKGLEWVSSISAMGGRTYYADSVKGRFTISRDNSKNTLYLQMNSLRAEDTAVYYCAQNLVRLGRSRWMFDYWGQGTLVTVSS VL: DIQMTQSPSSLSASVGDRVTITCRILQPPGRNLRWYQQKPGKAPKLLIYSKSFLEPGVPSRFSGSGSGTDFTLTISSLQPEDFATYHCQQGYRWPVTFGQGTKVEIKR"
  MRC5 IL-1α [nM]: 0.08
- binder: "ABT2-65-166/ABT1-95-A6 hu IgG1/K wt (bispecific antibody, V domains shown, hu IgG1/K wt; also called 1-95-A6 / 2-65-166) VH: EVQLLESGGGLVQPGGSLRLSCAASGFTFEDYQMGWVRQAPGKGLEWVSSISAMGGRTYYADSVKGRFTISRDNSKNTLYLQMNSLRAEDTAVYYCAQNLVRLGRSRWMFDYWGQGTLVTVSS VL: DIQMTQSPSSLSASVGDRVTITCRASKPGVRNMRWYQQKPGKAPKLLIYAKSYLEPGVPSRFSGSGSGTDFTLTISSLQPEDFATYHCKQGYRWPVQFGQGTKVEIKR"
  MRC5 IL-1α [nM]: 0.019
- binder: "ABT2-108-538x/ABT1-95-15 huIgG1/K wt (bispecific antibody, V domains shown, hu IgG1/K wt) VH: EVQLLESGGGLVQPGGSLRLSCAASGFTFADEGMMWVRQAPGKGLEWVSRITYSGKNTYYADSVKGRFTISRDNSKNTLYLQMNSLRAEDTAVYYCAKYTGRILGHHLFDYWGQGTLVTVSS VL: DIQMTQSPSSLSASVGDRVTITCRASQPIVRNLRWYQQKPGKAPKLLIYSSSYLEPGVPSRFSGSGSGTDFTLTISSLQPEDFATYHCQQGYRWPVTFGQGTKVEIKR"
  MRC5 IL-1α [nM]: 8
- binder: "ABT2-65-17/ABT1-141-25 hu IgG1/K wt (bispecific antibody, V domains shown) VH: EVQLLESGGGLVQPGGSLRLSCVASGFTFEDYQMGWVRQAPGKGLEWVSSISAMGNRTYYADSVKGRFTISRDDSKNTLYLQMNSLRAEDTAVYYCAQNLVRLGRSRWMFDYWGQGTLVTVSS VL: DIQMTQSPSSLSASVGDRVTITCRASQWIQKQLAWYQQKPGKAPKLLIYSSSYLQSGVPSRFSGSGSGTDFTLTISSLQPEDFATYYCQQHLRVPMTFGQGTKVEIKR"
  MRC5 IL-1α [nM]: 400
- binder: "ABT2-108/ABT1-141 hu IgG1/K wt (bispecific antibody, V domains shown) VH: EVQLLESGGGLVQPGGSLRLSCAASGFTFAEYTMMWVRQAPGKGLEWVSRIGQDGKNTYYADSVKGRFTISRDNSKNTLYLQMNSLRAEDTAVYYCAKYTGRVGVHHLFDYWGQGTLVTSS VL: DIQMTQSPSSLSASVGDRVTITCRASQWIQKQLAWYQQKPGKAPKLLIYSSSYLQSGVPRFSGSGSGTDFTLTISSLQPEDFATYYCQQHLRVPFTFGQGTKVEIKR"
  MRC5 IL-1α [nM]: 1500
- binder: "ABT2-108/ABT1-122-511 hu IgG1/K wt (bispecific antibody, V domains shown) VH: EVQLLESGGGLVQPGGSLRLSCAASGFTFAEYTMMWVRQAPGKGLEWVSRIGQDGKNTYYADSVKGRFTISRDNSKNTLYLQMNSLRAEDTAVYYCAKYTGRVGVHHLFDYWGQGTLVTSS VL: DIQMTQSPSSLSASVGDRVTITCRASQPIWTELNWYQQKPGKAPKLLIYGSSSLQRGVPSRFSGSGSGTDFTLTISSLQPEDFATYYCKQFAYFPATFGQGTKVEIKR"
  MRC5 IL-1α [nM]: 80
- binder: "ABT2-108-521/ABT1-122 hu IgG1/K wt (bispecific antibody, V domains shown) VH: EVQLLESGGGLVQPGGSLRLSCAASGFTFAEYTMMWVRQAPGKGLEWVSRIGQDGKNTYYADSVKGRFTISRDNSKNTLYLQMNSLRAEDTAVYYCAKYTGRILGHHLFDYWGQGTLVTVSS VL: DIQMTQSPSSLSASVGDRVTITCRASQPIWTELNWYQQKPGKAPKLLIYGSSSLQSGVPRFSGSGSGTDFTLTISSLQPEDFATYYCQQFAYFPATFGQGTKVEIKR"
  MRC5 IL-1α [nM]: 1000
- binder: "ABT2-65-17/ABT1-95-15 huIgG1/K wt (bispecific antibody, V domains shown) VH: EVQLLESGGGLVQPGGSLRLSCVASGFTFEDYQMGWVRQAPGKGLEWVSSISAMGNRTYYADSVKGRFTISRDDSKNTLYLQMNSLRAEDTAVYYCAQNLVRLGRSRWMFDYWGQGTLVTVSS VL: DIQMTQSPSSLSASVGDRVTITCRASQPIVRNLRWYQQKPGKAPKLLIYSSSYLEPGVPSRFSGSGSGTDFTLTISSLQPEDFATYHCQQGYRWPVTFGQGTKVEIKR"
  MRC5 IL-1α [nM]: 2.7
